Target: human ether-à-go-go-related gene (hERG) potassium channel (human, UniProt Q12809);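 further: peak tail current of the secondary pulse compared with the same well before compound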
Sequence (Q12809 whole entry, looked up): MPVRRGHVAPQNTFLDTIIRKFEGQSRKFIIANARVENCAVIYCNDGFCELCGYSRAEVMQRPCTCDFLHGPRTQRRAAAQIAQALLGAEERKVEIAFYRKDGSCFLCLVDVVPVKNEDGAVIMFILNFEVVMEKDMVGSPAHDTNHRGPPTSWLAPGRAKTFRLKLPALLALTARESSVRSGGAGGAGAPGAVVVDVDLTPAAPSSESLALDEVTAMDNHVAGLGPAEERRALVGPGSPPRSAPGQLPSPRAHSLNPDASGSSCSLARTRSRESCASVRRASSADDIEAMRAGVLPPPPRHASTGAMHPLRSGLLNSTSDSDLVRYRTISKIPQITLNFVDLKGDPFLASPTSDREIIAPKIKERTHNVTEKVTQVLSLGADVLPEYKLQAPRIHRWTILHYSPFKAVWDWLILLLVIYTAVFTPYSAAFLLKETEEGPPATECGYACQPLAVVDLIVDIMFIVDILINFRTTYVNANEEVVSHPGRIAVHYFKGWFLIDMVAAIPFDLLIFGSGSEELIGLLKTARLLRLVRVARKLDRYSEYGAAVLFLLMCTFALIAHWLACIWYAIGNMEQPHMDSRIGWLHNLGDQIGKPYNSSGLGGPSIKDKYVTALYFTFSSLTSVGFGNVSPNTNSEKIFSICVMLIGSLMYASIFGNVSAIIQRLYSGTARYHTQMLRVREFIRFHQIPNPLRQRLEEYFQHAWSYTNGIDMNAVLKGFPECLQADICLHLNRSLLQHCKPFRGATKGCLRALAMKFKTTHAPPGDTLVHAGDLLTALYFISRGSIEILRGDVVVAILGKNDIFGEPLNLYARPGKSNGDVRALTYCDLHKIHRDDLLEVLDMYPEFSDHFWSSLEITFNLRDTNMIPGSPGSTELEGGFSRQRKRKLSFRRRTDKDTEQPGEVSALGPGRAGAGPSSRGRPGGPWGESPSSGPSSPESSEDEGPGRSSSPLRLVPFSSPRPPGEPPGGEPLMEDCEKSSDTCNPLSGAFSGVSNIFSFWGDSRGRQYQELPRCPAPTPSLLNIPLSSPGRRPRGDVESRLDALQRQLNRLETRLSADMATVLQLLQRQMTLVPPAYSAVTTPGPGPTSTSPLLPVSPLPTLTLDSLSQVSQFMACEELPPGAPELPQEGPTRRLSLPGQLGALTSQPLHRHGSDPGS
Assay: primary screen, population patch clamp on CHO cells stably expressing hERG; higher = less effect of the substance
The whole screen tested about 310,000 compounds, of which about 14,000 (4.5%) showed an effect of 50% or more. Effects have a minus sign here. The full list was thinned out, with strong results kept by preference.
Form field: hERG current change (%, negative = inhibition) at 10uM (one value per entry).
Give the quantity in %, number only.

Consider the worked cases shown below.
# compound, study-system, endpoint-result
measured = [
    ("COc1cc(C(=O)NC(C)c2ccc(-n3ccnc3)cc2)cc(OC)c1C (stereo not shown)", "human ether-à-go-go-related gene (hERG) potassium channel (human, UniProt Q12809)", -72.9),
    ("CC(NC(=O)c1cccc(N(C)C)c1)c1ccc(-n2ccnc2)cc1 (stereo not shown)", "human ether-à-go-go-related gene (hERG) potassium channel (human, UniProt Q12809)", -68.3),
    ("O=C(NNc1nc2c(F)cc(F)cc2s1)c1ccccc1", "human ether-à-go-go-related gene (hERG) potassium channel (human, UniProt Q12809)", 8.87),
    ("O=C(COc1ccccc1)NNc1nc2c(F)cccc2s1", "human ether-à-go-go-related gene (hERG) potassium channel (human, UniProt Q12809)", 32.6),
    ("Cc1ccccc1C(=O)N1CCC(C(=O)NC(C)c2ccc(-n3ccnc3)cc2)CC1 (stereo not shown)", "human ether-à-go-go-related gene (hERG) potassium channel (human, UniProt Q12809)", -23),
]

QUERY: Which hERG current change (%, negative = inhibition) at 10uM reading was recorded for the compound CC(NC(=O)C1CCN(C(=O)c2ccc(F)cc2)CC1)c1ccc(-n2ccnc2)cc1 (stereo not shown) ?
RESULT: -64.7

QUERY: Which hERG current change (%, negative = inhibition) at 10uM reading was recorded for the compound `Cc1cccn2c(=O)c3cc(C(=O)N4COCC4(C)C)n(Cc4ccccc4)c3nc12` ?
RESULT: 1.23

QUERY: Which hERG current change (%, negative = inhibition) at 10uM reading was recorded for the compound `COc1ccc(Cl)cc1N1CCN(CCNC(=O)Nc2ccccc2C)CC1` ?
RESULT: -40.1

QUERY: Which hERG current change (%, negative = inhibition) at 10uM reading was recorded for the compound `C=CCNC(=S)N1CCN(c2ncc3c(=O)c(C(=O)O)cn(CC)c3n2)CC1` ?
RESULT: 2.8

QUERY: Which hERG current change (%, negative = inhibition) at 10uM reading was recorded for the compound `O=C(COc1ccccc1)NNc1nc2c(F)cc(F)cc2s1` ?
RESULT: -62.6

* * *

Molecular target: human ether-à-go-go-related gene (hERG) potassium channel (human, UniProt Q12809);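 further: peak tail current of the secondary pulse compared with the same well before compound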
Experiment: primary screen, population patch clamp on CHO cells stably expressing hERG; higher = less effect of the substance
Out of some 310,000 compounds screened, about 14,000 (4.5%) showed an effect of 50% or more. The effect is printed as a negative number. The list comes from a sample in which strong results are over-represented; it also holds close analogues and randomly drawn compounds.
# hERG current change (%, negative = inhibition) at 10uM >= -30% gives Condition met, anything below gives Condition not met

# compound, group
measured = [
    ("COP(=O)(OC)C(Nc1ccc([N+](=O)[O-])cc1)c1ccccc1 (centres unmarked)", "Condition not met"),
    ("Cc1c(C(=O)Nc2ccccc2)sc2nc(-c3ccccc3)cn12", "Condition met"),
    ("Cc1c(C(=O)NCc2ccccn2)sc2nc(-c3ccc(F)cc3)cn12", "Condition met"),
    ("Cc1c(C(=O)NCc2ccccn2)sc2nc(-c3ccccc3)cn12", "Condition met"),
    ("O=C(N/N=C/c1ccncc1)c1cccc([N+](=O)[O-])c1", "Condition met"),
    ("Cc1c(C(=O)NCc2cccnc2)sc2nc(-c3ccccc3)cn12", "Condition not met"),
    ("CCN(CC)CCCNC(=O)c1sc2nc(-c3ccc(F)cc3)cn2c1C", "Condition not met"),
    ("COc1ccc(C(=O)NCc2cc(C)nc3ccccc23)cc1OC", "Condition met"),
    ("COc1ccc(N(CC(=O)Nc2ccc(F)c(F)c2)S(=O)(=O)c2c(C)[nH]c(=O)[nH]c2=O)cc1", "Condition met"),
    ("Cc1cc(C)n(CCN(C)C(=O)CCc2nnc(-c3ccc4c(c3)OCO4)o2)n1", "Condition not met"),
]

QUERY: Can CC1CCCN(C(=O)CCc2nnc(-c3ccc4c(c3)OCO4)o2)C1 (centres unmarked) be said to have hERG current change (%, negative = inhibition) at 10uM at or above -30%?
RESULT: Condition met

QUERY: Can `Cc1c(C(=O)NCc2cccnc2)sc2nc(-c3ccc(F)cc3)cn12` be said to have hERG current change (%, negative = inhibition) at 10uM at or above -30%?
RESULT: Condition not met

QUERY: Can `COCCNC(=O)c1sc2nc(-c3ccccc3)cn2c1C` be said to have hERG current change (%, negative = inhibition) at 10uM at or above -30%?
RESULT: Condition met

QUERY: Can `O=C(OCc1ccccc1)c1cc(S(=O)(=O)N2CCCCC2)ccc1N1CCOCC1` be said to have hERG current change (%, negative = inhibition) at 10uM at or above -30%?
RESULT: Condition met

QUERY: Can `Cc1ccc(-n2cc(CN3CCN(Cc4nccn4C)CC3)c(-c3ccc(F)cc3)n2)cc1` be said to have hERG current change (%, negative = inhibition) at 10uM at or above -30%?
RESULT: Condition met

QUERY: Can `CCN(CC)CCNC(=O)c1sc2nc(-c3ccccc3)cn2c1C` be said to have hERG current change (%, negative = inhibition) at 10uM at or above -30%?
RESULT: Condition not met

QUERY: Can `CC(C)(C)CC(=O)Nc1nnc(SCC(=O)NC2CCCCC2)s1` be said to have hERG current change (%, negative = inhibition) at 10uM at or above -30%?
RESULT: Condition not met

QUERY: Can `Cc1c(C(=O)NCCN2CCOCC2)sc2nc(-c3ccc(F)cc3)cn12` be said to have hERG current change (%, negative = inhibition) at 10uM at or above -30%?
RESULT: Condition met

QUERY: Can `O=C(COc1ccccc1Cl)Nc1ccc2c(c1)OCO2` be said to have hERG current change (%, negative = inhibition) at 10uM at or above -30%?
RESULT: Condition met

QUERY: Can `Cc1c(C(=O)NCCCN2CCOCC2)sc2nc(-c3ccc(F)cc3)cn12` be said to have hERG current change (%, negative = inhibition) at 10uM at or above -30%?
RESULT: Condition not met
